# Tested on: PC12 cells
# methodDescription: Measurements of cGMP in rat PC12 cell line (cGMP accumulation, enzyme immunoassay)
# Format: cell-based
# conditionDetails: PC-12, 0.75 h, 45 min exposure, 0.1 to 25 μM test compound, in presence of IBMX (100 μM) and YC-1 (20 μM)
measuredQuantity: EC50

compound	EC50
COc1ccccc1OCCN(CC(O)COc1cccc2[nH]c3ccccc3c12)C(=O)c1ccc(CO[N+](=O)[O-])cc1 (stereo not shown) [Compound of example 3]	1800 nM
COc1ccccc1OCCNCC(COc1cccc2[nH]c3ccccc3c12)OC(=O)c1ccc(CO[N+](=O)[O-])cc1 (stereo not shown) [Compound of example 1]	2300 nM
COc1ccccc1OCCN(CC(O)COc1cccc2[nH]c3ccccc3c12)C(=O)CCCCCO[N+](=O)[O-] (stereo not shown) [Compound of example 5]	600 nM

The record that follows has no EC50 shown yet.
Q: Look at this compound and give its reported EC50. COc1ccccc1OCCN(CC(O)COc1cccc2[nH]c3ccccc3c12)C(=O)CCO[N+](=O)[O-] (stereo not shown) [Compound of example 4]
A: 1700 nM

// data source = patent US7825263B2
